assay: Ratio of compound IC50 to hematin IC50 for inhibition of beta-hematin formation
EXPERIMENTAL READOUT: Ratio IC50
Lab note: record the figure alone, no unit after it.

# input compound: COc1ccc(C(=O)/C=C/c2cc(CN3CCN(c4ccnc5cc(Cl)ccc45)CC3)c(O)c(OC)c2)c(OC)c1 ; wanted: its Ratio IC50 0.3

Repeat with COc1cc(/C=C/C(C)=O)ccc1OCCN1CCN(c2ccnc3cc(Cl)ccc23)CC1 0.5

Repeat with OCCN1CCN(c2ccnc3cc(Cl)ccc23)CC1 3.9

Repeat with COc1ccc(C(=O)/C=C/c2ccc(OCc3cn(-c4ccnc5cc(Cl)ccc45)nn3)c(OC)c2)c(OC)c1 1.6

Repeat with CC(=O)/C=C/c1ccc(O)c(CN2CCN(c3ccnc4cc(Cl)ccc34)CC2)c1 0.5

* * *

assay: Solubility of the compound in phosphate buffer at pH 6.5; format: physicochemical; conditions: buffer
Can you tell me solubility for the items I'm about to list?

# input compound: COc1ccc(C(=O)/C=C/c2cc(CN3CCN(c4ccnc5cc(Cl)ccc45)CC3)c(O)c(OC)c2)c(OC)c1 ; wanted: its solubility < 1.6 µg/mL

Repeat with COc1ccc(C(=O)/C=C/c2ccc(OCCN3CCN(c4ccnc5cc(Cl)ccc45)CC3)c(OC)c2)c(OC)c1 < 1.6 µg/mL

Repeat with CC(=O)/C=C/c1ccc(O)c(CN2CCN(c3ccnc4cc(Cl)ccc34)CC2)c1 < 1.6 µg/mL

Repeat with COc1ccc(C(=O)/C=C/c2ccc(OCc3cn(-c4ccnc5cc(Cl)ccc45)nn3)c(OC)c2)c(OC)c1 < 1.6 µg/mL

Repeat with COc1ccc(C(=O)/C=C/c2ccc(O)c(CN3CCN(c4ccnc5cc(Cl)ccc45)CC3)c2)c(OC)c1 < 1.6 µg/mL

* * *

system: Liver; test: Half life in mouse liver microsomes assessed as compound degradation at 1 uM by LC-MS analysis in presence of NADPH and UDPGA; type: ADME, Microsome; conditions: microsomes, 1 µM
EXPERIMENTAL READOUT: t1/2 (min)
Give your result in min as a bare value.

# input compound: COc1ccc(C(=O)/C=C/c2cc(CN3CCN(c4ccnc5cc(Cl)ccc45)CC3)c(O)c(OC)c2)c(OC)c1 ; wanted: its t1/2 11.8

Repeat with COc1cc(/C=C/C(C)=O)ccc1OCCNc1ccnc2cc(Cl)ccc12 13.4

Repeat with COc1ccc(C(=O)/C=C/c2ccc(OCc3cn(-c4ccnc5cc(Cl)ccc45)nn3)c(OC)c2)c(OC)c1 56.8

Repeat with COc1cc(/C=C/C(C)=O)cc(CN2CCN(c3ccnc4cc(Cl)ccc34)CC2)c1O 14

Repeat with COc1ccc(C(=O)/C=C/c2ccc(O)c(CN3CCN(c4ccnc5cc(Cl)ccc45)CC3)c2)c(OC)c1 45.4

Repeat with COc1ccc(C(=O)/C=C/c2ccc(OCCNc3ccnc4cc(Cl)ccc34)c(OC)c2)c(OC)c1 12.7

Repeat with CC(=O)/C=C/c1ccc(O)c(CN2CCN(c3ccnc4cc(Cl)ccc34)CC2)c1 15

* * *

assay: Ratio of compound IC50 to hematin IC50 for inhibition of beta-hematin formation
Strictly below 0.5 in Ratio IC50: label 1. Otherwise: label 0.

Find out if reported Ratio IC50 for COc1ccc(C(=O)/C=C/c2ccc(OCCN3CCN(c4ccnc5cc(Cl)ccc45)CC3)c(OC)c2)c(OC)c1 is less than 0.5 label 1

Repeat with OCCNc1ccnc2cc(Cl)ccc12 label 0

Repeat with CC(=O)/C=C/c1ccc(O)cc1 label 0

Repeat with COc1ccc(C(=O)/C=C/c2ccc(O)c(CN3CCN(c4ccnc5cc(Cl)ccc45)CC3)c2)c(OC)c1 label 1

Repeat with COc1ccc(C(=O)/C=C/c2ccc(OCCNc3ccnc4cc(Cl)ccc34)c(OC)c2)c(OC)c1 label 1

Repeat with COc1cc(/C=C/C(C)=O)ccc1OCCNc1ccnc2cc(Cl)ccc12 label 0

Repeat with COc1ccc(C(=O)/C=C/c2ccc(O)cc2)c(OC)c1 label 0

Repeat with COc1ccc(C(=O)/C=C/c2ccc(O)c(OC)c2)c(OC)c1 label 0
